Tested on: TERT protein
Assay: Fluorescence polarization binding assay (inhibitory activity of selected Table 9 compounds)
Set-up: species or system Tribolium castaneum
Conditions: compound 50 μM; TERT-Chim21m complex 250 nM, cyanine 5-dCTP 10 nM; footnote: observed value corresponds to 50% of the actual inhibition value
Procedure: The TERT protein was expressed and purified as described herein. Protein was concentrated to 4.72 mg ml-l using an AMICON 30K cutoff filter (Millipore) and stored at −80° C. for binding assays. […] Compound screens were carried out as 30.5 μl reactions in a 384-well, round bottom plate (Thermo). […] Fluorescence polarization was measured at λex=620 nm and λem=688 nm on an EnVision Xcite Multilabel plate reader (Perkin Elmer). […]
Property Label: Inhibition at 50 μM (%)*
The answer is to be given in %; state only the numeric part.

Worked examples, 3 molecules total:
Molecule	Result Number
CCOc1cc(CNCc2cccnc2)cc(Cl)c1OCC(N)=O.Cl	38.78
O=C(NCCCO)C1CCCN(S(=O)(=O)c2ccc3ccccc3c2)C1 (stereo not drawn)	30.42
CCOc1cc(CNCc2cccs2)cc(Cl)c1OCC(N)=O.Cl	49.10

Ask: Which Inhibition at 50 μM (%)* is listed for `O=C(Nn1cnnc1)c1cc(Br)ccc1Cl` ?
Result: 30.04

Ask: Try this molecule next: `CCOC(=O)c1c(NC(=O)/C=C/C(N)=O)sc(C)c1C`
Result: 39.41

Ask: Quick one: `Cc1ccc(C(=O)Nn2cnnc2)c(Cl)c1`
Result: 29.35

Ask: Field entry: COc1cc(CNC2C3CC4CC(C3)CC2C4)cc(Cl)c1OCC(N)=O (stereo not drawn)
Result: 35.18

Ask: Item: `CCOc1cc(CNCc2ccco2)cc(Br)c1OCC(N)=O.Cl`
Result: 30.92

Ask: Cool, now CC(O)CNC(=O)C(=O)Nc1ccc2c(c1)OCO2 (stereo not drawn)
Result: 29.71

Ask: `COc1cc(CNCc2ccccc2)cc(Cl)c1OCC(N)=O.Cl` ?
Result: 29.96

Ask: Same question, `COc1cc(CNCCc2ccccc2)cc(Br)c1OCC(N)=O` this time
Result: 27.65

###

tested on: TERT protein; assay: Fluorescence polarization binding assay (inhibitory activity of selected Table 9 compounds); parameters: species or system Tribolium castaneum; settings: compound 50 μM; TERT-Chim21m complex 250 nM, cyanine 5-dCTP 10 nM; footnote: observed value corresponds to 50% of the actual inhibition value
Property Label: Inhibition at 50 μM (%)*
Numbers only here, please. The scale is %.

Compound	Study System	Inhibition at 50 μM (%)*
CC(C(=O)Nn1cnnc1)N1C(=O)c2ccccc2C1=O (stereo not shown)	TERT protein	27.38
COc1cc(CNCc2cccs2)cc(Cl)c1OCC(N)=O.Cl	TERT protein	41.26
CNCc1cc(Cl)c(OCC(N)=O)c(OC)c1.Cl	TERT protein	31.30
NC(=O)CCN1C(=O)c2cccc3cccc(c23)C1=O	TERT protein	36.58
COc1cc(CNCc2ccncc2)cc(Cl)c1OCC(N)=O.Cl	TERT protein	45.56

Ask: Give its Inhibition at 50 μM (%)* value. Item: `COc1cc(CNCCN2CCOCC2)cc(Br)c1OCC(N)=O.Cl.Cl`
Result: 30.23

Ask: Also need `COc1cc(CNc2ccc3[nH]c(=O)[nH]c3c2)cc(Cl)c1OCC(N)=O` , thanks.
Result: 29.33
